test system: Staphylococcus aureus CMX 553; assay: In Vitro Antibacterial Activity, agar dilution MIC; assay type: cell-based; settings: S. aureus CMX 553; BHI agar dilution, 20-24 hours; unit assumed
reported_metric: MIC values (µg/mL)
Could you give me the number in µg/mL? Just the number is fine.

Worked set:
> print(dat)
                                   molecule  reported.metric  measured.value
1  NC1CN(c2c(F)cc3c(=O)c(C(=O)O)cn(C4CC4)c3c2F)CC12OCCO2 (centres unmarked) [Example 274]       MIC values             0.1
2  C[C@@H]1COc2c(N3CCC4(CC3)OCCCO4)c(F)cc3c(=O)c(C(=O)O)cn1c23 [Example 330]       MIC values             0.2
3  CN(C)CC1COC2(CCN(c3nc4c(cc3F)c(=O)c(C(=O)O)cn4-c3ccc(F)cc3F)C2)O1 (centres unmarked) [Example 445]       MIC values            0.39
4  O=C(O)c1cn(C2CC2)c2cc(N3CCNCC3)c(F)cc2c1=O [Cipro, Ciprofloxacin, reference compound]       MIC values            0.78

Then there is this molecule:
Recall the recorded MIC values for Cl.Cl.NCC1COC2(CCN(c3cc4c(cc3F)c(=O)c(C(=O)O)cn4-c3ccc(F)cc3F)C2)O1 (centres unmarked) [Example 159] with Staphylococcus aureus CMX 553 and state it.
0.78
